Test system: E. faecalis VRE 53
Protocol Description: MIC, broth microdilution, vancomycin-resistant E. faecalis VRE 53 (VanA)
Type: cell-based, Enterococcus faecalis
Experimental Conditions: Enterococcus faecalis VRE 53 (vancomycin-resistant); read-out: MIC
Catalogue of MIC values

{"columns": ["Compound", "System Tested", "MIC, µM"],
 "data": [
  ["CN[C@H](CC(C)C)C(=O)N[C@H]1C(=O)N[C@@H](CC(N)=O)C(=O)N[C@H]2C(=O)N[C@H]3C(=O)N[C@H](C(=O)N[C@H](C(=O)NCC(=O)Nc4ccc(C(F)(F)F)cc4)c4cc(O)cc(O)c4-c4cc3ccc4O)[C@H](O)c3ccc(c(Cl)c3)Oc3cc2cc(c3O[C@@H]2O[C@H](CO)[C@@H](O)[C@H](O)[C@H]2O[C@H]2C[C@](C)(N)[C@H](O)[C@H](C)O2)Oc2ccc(cc2Cl)[C@H]1O [Vanc-40]", "E. faecalis VRE 53", 25],
  ["CCCC#Cc1ccc(NC(=O)CNC(=O)C2NC(=O)C3NC(=O)C(NC(=O)C4NC(=O)C(CC(N)=O)NC(=O)C(NC(=O)C(CC(C)C)NC)C(O)c5ccc(c(Cl)c5)Oc5cc4cc(c5OC4OC(CO)C(O)C(O)C4OC4CC(C)(N)C(O)C(C)O4)Oc4ccc(cc4Cl)C3O)c3ccc(O)c(c3)-c3c(O)cc(O)cc32)cc1 (stereo not drawn) [Vanc-68]", "E. faecalis VRE 53", 3.13],
  ["CN[C@H](CC(C)C)C(=O)N[C@H]1C(=O)N[C@@H](CC(N)=O)C(=O)N[C@H]2C(=O)N[C@H]3C(=O)N[C@H](C(=O)N[C@H](C(=O)NCCNC(=O)/C=C/c4ccc(C)cc4)c4cc(O)cc(O)c4-c4cc3ccc4O)[C@H](O)c3ccc(c(Cl)c3)Oc3cc2cc(c3O[C@@H]2O[C@H](CO)[C@@H](O)[C@H](O)[C@H]2O[C@H]2C[C@](C)(N)[C@H](O)[C@H](C)O2)Oc2ccc(cc2Cl)[C@H]1O [Vanc-53]", "E. faecalis VRE 53", 12.5]
]}

###

Test system: E. faecalis VRE 53
Protocol Description: MIC, broth microdilution, vancomycin-resistant E. faecalis VRE 53 (VanA)
Type: cell-based, Enterococcus faecalis
Experimental Conditions: VRE 53; ratio of MIC of vancomycin and MIC of analogue
Catalogue of MIC-fold improvement vs. vancomycin values

{"columns": ["Compound", "System Tested", "MIC-fold improvement vs. vancomycin"],
 "data": [
  ["CCCCCCCC[N+](C)(C)CCCNC(=O)c1ccc(NC(=O)CNC(=O)C2NC(=O)C3NC(=O)C(NC(=O)C4NC(=O)C(CC(N)=O)NC(=O)C(NC(=O)C(CC(C)C)NC)C(O)c5ccc(c(Cl)c5)Oc5cc4cc(c5OC4OC(CO)C(O)C(O)C4OC4CC(C)(N)C(O)C(C)O4)Oc4ccc(cc4Cl)C3O)c3ccc(O)c(c3)-c3c(O)cc(O)cc32)cc1 (stereo not drawn)", "E. faecalis VRE 53", 16],
  ["CN[C@H](CC(C)C)C(=O)N[C@H]1C(=O)N[C@@H](CC(N)=O)C(=O)N[C@H]2C(=O)N[C@H]3C(=O)N[C@H](C(=O)N[C@H](C(=O)NCCNC(=O)CC(c4ccccc4)c4ccccc4)c4cc(O)cc(O)c4-c4cc3ccc4O)[C@H](O)c3ccc(c(Cl)c3)Oc3cc2cc(c3O[C@@H]2O[C@H](CO)[C@@H](O)[C@H](O)[C@H]2O[C@H]2C[C@](C)(N)[C@H](O)[C@H](C)O2)Oc2ccc(cc2Cl)[C@H]1O", "E. faecalis VRE 53", 8],
  ["CCCCC#Cc1ccc(/C=C/C(=O)NCCNC(=O)[C@H]2NC(=O)[C@H]3NC(=O)[C@H](NC(=O)[C@@H]4NC(=O)[C@H](CC(N)=O)NC(=O)[C@H](NC(=O)[C@@H](CC(C)C)NC)[C@H](O)c5ccc(c(Cl)c5)Oc5cc4cc(c5O[C@@H]4O[C@H](CO)[C@@H](O)[C@H](O)[C@H]4O[C@H]4C[C@](C)(N)[C@H](O)[C@H](C)O4)Oc4ccc(cc4Cl)[C@H]3O)c3ccc(O)c(c3)-c3c(O)cc(O)cc32)cc1", "E. faecalis VRE 53", 64]
]}

###

Test system: E. faecalis VRE 53
Protocol Description: MIC, broth microdilution, vancomycin-resistant E. faecalis VRE 53 (VanA)
Assay type: cell-based, Enterococcus faecalis
Experimental Conditions: VRE 53; ratio of MIC of vancomycin and MIC of analogue
Method: The minimum inhibitory concentration (MIC) was determined using the broth microdilution method according to the antimicrobial susceptibility testing standards of the clinical and laboratory standards institute ([Clinical and Laboratory Standards Institute [CLSI], 2012]). Ultrapure water and non-inoculated broth were used as controls. In one case, a final concentration of 10 μM vancomycin was included with the vancomycin analog or control antibiotic.

{"columns": ["Compound", "MIC-fold improvement vs. vancomycin"],
 "data": [
  ["CN[C@H](CC(C)C)C(=O)N[C@H]1C(=O)N[C@@H](CC(N)=O)C(=O)N[C@H]2C(=O)N[C@H]3C(=O)N[C@H](C(=O)N[C@H](C(=O)NCC(=O)Nc4ccc5cc6ccccc6cc5c4)c4cc(O)cc(O)c4-c4cc3ccc4O)[C@H](O)c3ccc(c(Cl)c3)Oc3cc2cc(c3O[C@@H]2O[C@H](CO)[C@@H](O)[C@H](O)[C@H]2O[C@H]2C[C@](C)(N)[C@H](O)[C@H](C)O2)Oc2ccc(cc2Cl)[C@H]1O", 32],
  ["CNC(CC(C)C)C(=O)NC1C(=O)NC(CC(N)=O)C(=O)NC2C(=O)NC3C(=O)NC(C(=O)NC(C(=O)NCCCNC(=O)c4ccc(-c5ccc(-c6ccccc6)cc5)cc4)c4cc(O)cc(O)c4-c4cc3ccc4O)C(O)c3ccc(c(Cl)c3)Oc3cc2cc(c3OC2OC(CO)C(O)C(O)C2OC2CC(C)(N)C(O)C(C)O2)Oc2ccc(cc2Cl)C1O (centres unmarked)", 64],
  ["CNC(CC(C)C)C(=O)NC1C(=O)NC(CC(N)=O)C(=O)NC2C(=O)NC3C(=O)NC(C(=O)NC(C(=O)NCC(=O)Nc4ccc(-c5ccc(Cl)cc5)cc4)c4cc(O)cc(O)c4-c4cc3ccc4O)C(O)c3ccc(c(Cl)c3)Oc3cc2cc(c3OC2OC(CO)C(O)C(O)C2OC2CC(C)(N)C(O)C(C)O2)Oc2ccc(cc2Cl)C1O (centres unmarked)", 128],
  ["CNC(CC(C)C)C(=O)NC1C(=O)NC(CC(N)=O)C(=O)NC2C(=O)NC3C(=O)NC(C(=O)NC(C(=O)NCCCNC(=O)c4cc5ccccc5o4)c4cc(O)cc(O)c4-c4cc3ccc4O)C(O)c3ccc(c(Cl)c3)Oc3cc2cc(c3OC2OC(CO)C(O)C(O)C2OC2CC(C)(N)C(O)C(C)O2)Oc2ccc(cc2Cl)C1O (centres unmarked)", 16],
  ["CNC(CC(C)C)C(=O)NC1C(=O)NC(CC(N)=O)C(=O)NC2C(=O)NC3C(=O)NC(C(=O)NC(C(=O)NCCCNC(=O)c4ccc5cc(NS(=O)(=O)c6ccccc6)ccc5c4)c4cc(O)cc(O)c4-c4cc3ccc4O)C(O)c3ccc(c(Cl)c3)Oc3cc2cc(c3OC2OC(CO)C(O)C(O)C2OC2CC(C)(N)C(O)C(C)O2)Oc2ccc(cc2Cl)C1O (centres unmarked)", 16],
  ["CN[C@H](CC(C)C)C(=O)N[C@H]1C(=O)N[C@@H](CC(N)=O)C(=O)N[C@H]2C(=O)N[C@H]3C(=O)N[C@H](C(=O)N[C@H](C(=O)NCC(=O)Nc4ccc(C)cc4C)c4cc(O)cc(O)c4-c4cc3ccc4O)[C@H](O)c3ccc(c(Cl)c3)Oc3cc2cc(c3O[C@@H]2O[C@H](CO)[C@@H](O)[C@H](O)[C@H]2O[C@H]2C[C@](C)(N)[C@H](O)[C@H](C)O2)Oc2ccc(cc2Cl)[C@H]1O", 16],
  ["CN[C@H](CC(C)C)C(=O)N[C@H]1C(=O)N[C@@H](CC(N)=O)C(=O)N[C@H]2C(=O)N[C@H]3C(=O)N[C@H](C(=O)N[C@H](C(=O)NCC(=O)Nc4ccc([N+](=O)[O-])cc4)c4cc(O)cc(O)c4-c4cc3ccc4O)[C@H](O)c3ccc(c(Cl)c3)Oc3cc2cc(c3O[C@@H]2O[C@H](CO)[C@@H](O)[C@H](O)[C@H]2O[C@H]2C[C@](C)(N)[C@H](O)[C@H](C)O2)Oc2ccc(cc2Cl)[C@H]1O", 16],
  ["CN[C@H](CC(C)C)C(=O)N[C@H]1C(=O)N[C@@H](CC(N)=O)C(=O)N[C@H]2C(=O)N[C@H]3C(=O)N[C@H](C(=O)N[C@H](C(=O)O)c4cc(O)cc(O)c4-c4cc3ccc4O)[C@H](O)c3ccc(c(Cl)c3)Oc3cc2cc(c3O[C@@H]2O[C@H](CO)[C@@H](O)[C@H](O)[C@H]2O[C@H]2C[C@](C)(N)[C@H](O)[C@H](C)O2)Oc2ccc(cc2Cl)[C@H]1O", 1],
  ["C#Cc1ccc(C=Cc2ccc(NC(=O)CNC(=O)C3NC(=O)C4NC(=O)C(NC(=O)C5NC(=O)C(CC(N)=O)NC(=O)C(NC(=O)C(CC(C)C)NC)C(O)c6ccc(c(Cl)c6)Oc6cc5cc(c6OC5OC(CO)C(O)C(O)C5OC5CC(C)(N)C(O)C(C)O5)Oc5ccc(cc5Cl)C4O)c4ccc(O)c(c4)-c4c(O)cc(O)cc43)cc2)cc1 (centres unmarked)", 64],
  ["C#Cc1ccc2cc(C(=O)NCCCNC(=O)[C@H]3NC(=O)[C@H]4NC(=O)[C@H](NC(=O)[C@@H]5NC(=O)[C@H](CC(N)=O)NC(=O)[C@H](NC(=O)[C@@H](CC(C)C)NC)[C@H](O)c6ccc(c(Cl)c6)Oc6cc5cc(c6O[C@@H]5O[C@H](CO)[C@@H](O)[C@H](O)[C@H]5O[C@H]5C[C@](C)(N)[C@H](O)[C@H](C)O5)Oc5ccc(cc5Cl)[C@H]4O)c4ccc(O)c(c4)-c4c(O)cc(O)cc43)ccc2c1", 128],
  ["CCCCCc1ccc(C(=O)NCCCNC(=O)C2NC(=O)C3NC(=O)C(NC(=O)C4NC(=O)C(CC(N)=O)NC(=O)C(NC(=O)C(CC(C)C)NC)C(O)c5ccc(c(Cl)c5)Oc5cc4cc(c5OC4OC(CO)C(O)C(O)C4OC4CC(C)(N)C(O)C(C)O4)Oc4ccc(cc4Cl)C3O)c3ccc(O)c(c3)-c3c(O)cc(O)cc32)cc1 (centres unmarked)", 64]
]}
